- Tested on: murine neural precursor cells (neurosphere cultures)
- procedure_details: HTS of LOPAC library against secondary neurosphere cultures, MTT proliferation assay at 3 μM, day 7 (z score, P value)
- Type: cell-based, mouse
- settings: 168 h, 3 µM
Counter-ions that a name gives are not always drawn.
measurement_kind: Z score
Write no unit; give the number alone.

Field: example entries. Status: answers known.
>>> readout_number("CCNC(=O)N1CCN(CCCC(c2ccc(F)cc2)c2ccc(F)cc2)CC1 [Amperozide hydrochloride]")
"−0.413"
>>> readout_number("CN(C)CCCO[C@@H]1[C@H]2OC(C)(C)O[C@H]2O[C@@H]1[C@H](O)CO [Amiprilose hydrochloride]")
"−0.778"

Looking up CN(C)CCC=C1c2ccccc2COc2ccccc21 [Doxepin hydrochloride] , I see its Z score listed as −1.012

Z score recorded for this molecule, CN1CCN(CC(=O)N2c3ccccc3C(=O)Nc3cccnc32)CC1 [Pirenzepine dihydrochloride] , is −0.545

molecule CN(C)CCC=C1c2ccccc2CCc2ccccc21 [Amitriptyline hydrochloride] , Z score observed: 0.707

---

- System: murine neural precursor cells (neurosphere cultures)
- procedure_details: HTS of LOPAC library against secondary neurosphere cultures, MTT proliferation assay at 3 μM, day 7 (z score, P value)
- Assay type: cell-based, mouse
- settings: LOPAC primary screen, neurosphere MTT proliferation, 3 μM, day 7
Counter-ions that a name gives are not always drawn.
measurement_kind: Z score
Give only the figure.

Below, 3 molecules whose answers are already recorded.
>>> readout_number("O=C1Nc2ccccc2/C1=C1/Nc2ccccc2/C1=N\\O [Indirubin-3′-oxime]")
"−0.397"
>>> readout_number("C[N+](C)(C)CC(=O)O [Betaine hydrochloride]")
"−2.668"
>>> readout_number("CC(=O)N[C@H](C(=O)O)C(C)(C)SN=O (racemic) [S-Nitroso-N-acetylpenicillamine]")
"−1.645"

Turning now to a further molecule:
Per the record, Cl.O=C(O)C1=CCCNC1 [Guvacine hydrochloride] has Z score of −1.345

---

- Test system: murine neural precursor cells (neurosphere cultures)
- procedure_details: HTS of LOPAC library against secondary neurosphere cultures, MTT proliferation assay at 3 μM, day 7 (z score, P value)
- Assay type: cell-based, mouse
- settings: LOPAC primary screen, neurosphere MTT proliferation, 3 μM, day 7
// boundary case: Z score equal to -0.03 maps to n; strictly smaller maps to y

Answered cases to consult:
>>> assigned_class("Nc1nc2c(ncn2COCCO)c(=O)[nH]1")
"y"
>>> assigned_class("CC[N+](C)(CC)CC(=O)Nc1c(C)cccc1C.[Cl-] [Lidocaine N-methyl hydrochloride]")
"y"
>>> assigned_class("CN1C2CCC1CC(OC(c1ccccc1)c1ccc(Cl)cc1)C2.Cl (stereo not shown)")
"y"

q: Criterion: Z score strictly below -0.03. Is it met by O=C(CCNNC(=O)c1ccncc1)NCc1ccccc1 [Nialamide] ?
a: n

q: Determine if COc1cc(CNC(=O)CCCCCCC(C)C)ccc1O [Dihydrocapsaicin (15), Dihydrocapsaicin] shows Z score strictly lower than -0.03.
a: y

q: Criterion: Z score strictly below -0.03. Is it met by O=C(O)CCc1nc(-c2ccccc2)c(-c2ccccc2)o1 ?
a: n

q: Please state whether Z score is below -0.03 for C[N+]1(C)[C@@H]2C[C@@H](OC(=O)[C@H](CO)c3ccccc3)C[C@H]1[C@@H]1O[C@@H]12.[Br-] [(−)-Scopolamine methyl bromide]
a: y

q: Just wondering, is Z score of CC(=O)CCCCn1c(=O)c2c(ncn2C)n(C)c1=O below -0.03?
a: y

q: In the record for CCCN1CCc2cc(O)cc3c2[C@H]1Cc1ccc(O)c(O)c1-3 , is Z score less than -0.03?
a: y

Source listed as patent US8058243B2.
